Just for reference, the NIST ThermoML archive (doi:10.1021/je201310d) is where these values come from.

Assay: activity coefficient (dimensionless); of the first substance listed, at infinite dilution; xn = mol fraction of the nth substance listed
Conditions: 313.15 K; 101 kPa; Liquid; Chromatography; x1 = 0
Simple rule here: activity coefficient less than 2 is satisfied, otherwise not satisfied.

# compound, label-value
data = [
    ("C1CCCCC1 [cyclohexane] + CCCCOP(=O)([O-])OCCCC.CCCCn1cc[n+](C)c1", "not satisfied"),
]

Next item in the queue.
In plain terms, does CCCCC [pentane] + CCCCOP(=O)([O-])OCCCC.CCCCn1cc[n+](C)c1 come in under 2 for activity coefficient? not satisfied

====

Assay: activity coefficient (dimensionless); of the first substance listed, at infinite dilution; xn = mol fraction of the nth substance listed
Details: 343.15 K; 101 kPa; Liquid; Chromatography; x1 = 0
measure: activity coefficient
I'd appreciate a reply containing only the number, no unit.

Please review the entries below; each comes with its answer.
# compound, activity coefficient
data = [
    ("C1CCCCC1 [cyclohexane] + CCCCOP(=O)([O-])OCCCC.CCCCn1cc[n+](C)c1", 2.76),
    ("c1ccccc1 [benzene] + CCCCOP(=O)([O-])OCCCC.CCCCn1cc[n+](C)c1", 0.9),
    ("CCCCCCCC [octane] + CCCCOP(=O)([O-])OCCCC.CCCCn1cc[n+](C)c1", 6.28),
    ("C=Cc1ccccc1 [styrene] + CCCCOP(=O)([O-])OCCCC.CCCCn1cc[n+](C)c1", 1.07),
    ("Cc1ccc(C)cc1 [1,4-dimethylbenzene] + CCCCOP(=O)([O-])OCCCC.CCCCn1cc[n+](C)c1", 1.78),
]

State its activity coefficient: Cc1ccccc1C [1,2-dimethylbenzene] + CCCCOP(=O)([O-])OCCCC.CCCCn1cc[n+](C)c1 1.71

State its activity coefficient: CCCCCCCCCC [decane] + CCCCOP(=O)([O-])OCCCC.CCCCn1cc[n+](C)c1 8.78

State its activity coefficient: C1=CCCCC1 [cyclohexene] + CCCCOP(=O)([O-])OCCCC.CCCCn1cc[n+](C)c1 2.05

====

Assay: activity coefficient (dimensionless); of the first substance listed, at infinite dilution; xn = mol fraction of the nth substance listed
Details: 313.15 K; 101 kPa; Liquid; Chromatography; x1 = 0
Listed here are molecules together with their documented activity coefficient.
I'd appreciate a reply containing only the number, no unit.

Please review the entries below; each comes with its answer.
# molecule, activity coefficient
measured = [
    ("CCCCCCCCC [nonane] + CCCCOP(=O)([O-])OCCCC.CCCCn1cc[n+](C)c1", 7.69),
    ("Cc1ccccc1 [toluene] + CCCCOP(=O)([O-])OCCCC.CCCCn1cc[n+](C)c1", 1.39),
    ("CCCCCCC [heptane] + CCCCOP(=O)([O-])OCCCC.CCCCn1cc[n+](C)c1", 5.5),
]

State its activity coefficient: Cc1cccc(C)c1 [1,3-dimethylbenzene] + CCCCOP(=O)([O-])OCCCC.CCCCn1cc[n+](C)c1 1.99

State its activity coefficient: CC1CCCCC1 [methylcyclohexane] + CCCCOP(=O)([O-])OCCCC.CCCCn1cc[n+](C)c1 3.7

====

Test: activity coefficient (dimensionless); of the first substance listed, at infinite dilution; xn = mol fraction of the nth substance listed
Conditions: 343.15 K; 101 kPa; Liquid; Chromatography; x1 = 0
measure: activity coefficient
I'd appreciate a reply containing only the number, no unit.

Please review the entries below; each comes with its answer.
# compound, measure, value
data = [
    ("CC(C)CC(C)(C)C [2,2,4-trimethylpentane] + CCCCOP(=O)([O-])OCCCC.CCCCn1cc[n+](C)c1", "activity coefficient", 6.01),
    ("CCCCCCCCC [nonane] + CCCCOP(=O)([O-])OCCCC.CCCCn1cc[n+](C)c1", "activity coefficient", 7.13),
    ("CCCCCCC [heptane] + CCCCOP(=O)([O-])OCCCC.CCCCn1cc[n+](C)c1", "activity coefficient", 5.21),
]

State its activity coefficient: CCCCCC [hexane] + CCCCOP(=O)([O-])OCCCC.CCCCn1cc[n+](C)c1 4.45

State its activity coefficient: Cc1cccc(C)c1 [1,3-dimethylbenzene] + CCCCOP(=O)([O-])OCCCC.CCCCn1cc[n+](C)c1 1.88

State its activity coefficient: CC1CCCCC1 [methylcyclohexane] + CCCCOP(=O)([O-])OCCCC.CCCCn1cc[n+](C)c1 3.48

State its activity coefficient: CCCCC [pentane] + CCCCOP(=O)([O-])OCCCC.CCCCn1cc[n+](C)c1 3.86

State its activity coefficient: Cc1ccccc1 [toluene] + CCCCOP(=O)([O-])OCCCC.CCCCn1cc[n+](C)c1 1.3
